# ASSAY DETAILS: Peptide concentration in plasma and pancreas 30 min post dose
# Type: in vivo, rat
# STATED CONDITIONS: male, Sprague-Dawley, rat, in vivo, sc, 25 mg/kg, Peptide concentration, Plasma
ASSAY METRIC: level at 0.5 h (ng/mL)
Answers are plain numbers, in ng/mL.

Record Ac-IGLHDPSHGTLPAGS-OH [Peptide 12, Ac-IGLHDPSHGTLPAGS-OH] . Reported level at 0.5 h: 5370

----------
# ASSAY DETAILS: Pharmacokinetics in rat, intravenous bolus
# Type: in vivo
# STATED CONDITIONS: male, Sprague-Dawley, rat, in vivo, iv, 25 mg/kg
ASSAY METRIC: AUC(0-t) (ng·h/mL)
Numbers only, in ng·h/mL.

Record Ac-IGLHDPSHGTLPAGS-OH [Peptide 12, Ac-IGLHDPSHGTLPAGS-OH] . Reported AUC(0-t): 12600

----------
# ASSAY DETAILS: Pharmacokinetics in rat, subcutaneous bolus (Example VII)
# Assay type: in vivo
# STATED CONDITIONS: male, Sprague-Dawley, rat, in vivo, sc, 25 mg/kg
ASSAY METRIC: AUC(0-t)
Mention the unit after the number when you answer.

Record Ac-IGLHDPSHGTLPAGS-OH [Peptide 12, Ac-IGLHDPSHGTLPAGS-OH] . Reported AUC(0-t): 8420 ng·h/mL

----------
# ASSAY DETAILS: Pharmacokinetics in rat, intravenous bolus
# Assay type: in vivo
# STATED CONDITIONS: male, Sprague-Dawley, rat, in vivo, iv, 25 mg/kg
ASSAY METRIC: AUC(0-inf) (ng·h/mL)
Give bare numbers, in ng·h/mL.

Record Ac-IGLHDPSHGTLPAGS-OH [Peptide 12, Ac-IGLHDPSHGTLPAGS-OH] . Reported AUC(0-inf): 12600

----------
# ASSAY DETAILS: Pharmacokinetics in mouse, subcutaneous bolus
# Format: in vivo
# STATED CONDITIONS: male, C57BL/6, plasma; MOUSE (SC), 25 mg/kg; read-out: AUC(0-∞)
ASSAY METRIC: AUC(0-inf) (ng·h/mL)
Numbers only, in ng·h/mL.

Below are some substances; for each one, tell me its AUC(0-inf).
1. H-IGLHDPSHGTLPNGS-OH [Peptide 1, H-IGLHDPSHGTLPNGS-OH, reference compound]
2. Ac-IGLHDPSHGTLPNGS-OH [Peptide 16, Ac-IGLHDPSHGTLPNGS-OH]

A.
[58.3, 11400]

----------
# ASSAY DETAILS: Pharmacokinetics in SD rats after single subcutaneous dose (Example X)
# Format: in vivo, rat
# STATED CONDITIONS: plasma, sc; male Sprague-Dawley rat, subcutaneous, 25 mg/kg; read-out: AUC(0-∞)
# Procedure: After 7 days acclimation, a total of 15 male Sprague-Dawley (SD) rats (body weight: 230 to 270 g) in good health from Sino-British SIPPR/BK Lab Animal Ltd, Shanghai, were used in the study. […] Three animals in each group were used for blood collection at the time point of 5 min, 15 min, 30 min, 1 h, 2 h, 4 h, 6 h, 8 h and 24 h post-dose. […] The resulting plasma was stored frozen at −80° C. until being analyzed. […]
ASSAY METRIC: AUC(0-inf)
Mention the unit after the number when you answer.

1. Ac-IGLHDPSHGTLPAGS-NH2 [Peptide 29, Ac-IGLHDPSHGTLPAGS-NH2]
14400 ng·h/mL
2. H-IGLHDPSHGTLPNGS-OH [Peptide 1, H-IGLHDPSHGTLPNGS-OH, reference compound]
298 ng·h/mL
3. Ac-IGLHDPSHGTLPNGS-NH2 [Peptide 31, Ac-IGLHDPSHGTLPNGS-NH2]
15600 ng·h/mL

Record Ac-IGLHDPSHGTLPNGS-OH [Peptide 16, Ac-IGLHDPSHGTLPNGS-OH] . Reported AUC(0-inf): 11200 ng·h/mL

All values here come from patent US9388215B2.
